# assayed system: Na-K ATPase (Oryctolagus cuniculus, UniProt Q9N0Z6)
# measurement protocol: 50% inhibition of Na-K ATPase by doxorubicin analogs
# Assay type: biochemical
# conditions used: read-out: Concentration for 50% Inhibition NaK ATPase
pIC50: −log10 of the molar value.
assay readout: pIC50

COc1cccc2c1C(=O)c1c(O)c3c(c(O)c1C2=O)C[C@@](O)(C(C)=NNC(=O)c1ccc(N(C)C)cc1)C[C@@H]3O[C@H]1C[C@H](N)[C@H](O)[C@H](C)O1 : 10.00
COc1cccc2c1C(=O)c1c(O)c3c(c(O)c1C2=O)C[C@@](O)(C(CO)=NNC(=O)c1ccccc1)C[C@@H]3O[C@H]1C[C@H](N)[C@H](O)[C@H](C)O1 : 5.00
COc1cccc2c1C(=O)c1c(O)c3c(c(O)c1C2=O)C[C@@](O)(C(C)=NNC(=O)c1ccc(O)cc1)C[C@@H]3O[C@H]1C[C@H](N)[C@H](O)[C@H](C)O1 : 10.00
COc1ccc(C(=O)NN=C(C)[C@]2(O)Cc3c(O)c4c(c(O)c3[C@@H](O[C@H]3C[C@H](N)[C@H](O)[C@H](C)O3)C2)C(=O)c2c(OC)cccc2C4=O)cc1 : 9.00
COc1cccc2c1C(=O)c1c(O)c3c(c(O)c1C2=O)C[C@@](O)(C(C)=NNC(=O)c1ccc([N+](=O)[O-])cc1)C[C@@H]3O[C@H]1C[C@H](N)[C@H](O)[C@H](C)O1 : 5.00

----------
# measurement protocol: Toxicity: survivors after one intraperitoneal injection in mice
# conditions used: mouse, in vivo, ip, 10 mg/kg
assay readout: survival at 192 h (%)

COc1cccc2c1C(=O)c1c(O)c3c(c(O)c1C2=O)C[C@@](O)(C(=O)CO)C[C@@H]3O[C@H]1C[C@H](N)[C@H](O)[C@H](C)O1 : 100

----------
# measurement protocol: Toxicity: survivors after one intraperitoneal injection in mice
# conditions used: mouse, in vivo, ip, 60 mg/kg
assay readout: survival at 192 h (%)

COc1cccc2c1C(=O)c1c(O)c3c(c(O)c1C2=O)C[C@@](O)(C(=O)CO)C[C@@H]3O[C@H]1C[C@H](N)[C@H](O)[C@H](C)O1 : 0
